Assay: Intrinsic clearance, rat hepatocytes
Format: in vitro ADME
Details: cryopreserved hepatocytes, Table 3, read-out: Rat Hepatocytes CL
measurement name: hepatocyte CLint

1) CSc1ccccc1[C@H]1CCCN1C(=O)CNC(=O)N(Cc1ccc2c(c1)[C@H]1C[C@@H](N2)[C@H](O)CO1)Cc1nnn(C)n1
< 8 µL/min/1e6 cells

* * *

Test: Aqueous kinetic solubility, shake-flask
Settings: simulated gastric fluid
solubility at 24 h values, listed per item
measurement name: solubility at 24 h

1) CSc1ccccc1[C@H]1CCCN1C(=O)CNC(=O)N(Cc1ccc(N)c(Cl)c1)Cc1nnn(C)n1
> 200 µM
2) CSc1ccccc1[C@H]1CCCN1C(=O)CNC(=O)N(Cc1cnc(N)nc1)Cc1ncc(C)s1
> 200 µM
3) Cn1nnc(CN(Cc2ccc(N)c(Cl)c2)C(=O)NCC(=O)N2CCC[C@@H]2c2ccccc2Br)n1
> 200 µM

* * *

Assay: Intrinsic clearance, rat liver microsomes
Format: in vitro ADME
Details: read-out: Rat Liver microsomes t1/2
half-life values, listed per item
measurement name: half-life (min)

1. CSc1ccccc1[C@H]1CCCN1C(=O)CNC(=O)N(Cc1cnc(N)nc1)Cc1ncc(C)s1 [Compound 12]
15
2. CSc1ccccc1[C@H]1CCCN1C(=O)CNC(=O)N(Cc1ccc(N)c(Cl)c1)Cc1nnn(C)n1 [Compound 11]
20
3. Cn1nnc(CN(Cc2ccc(N)c(Cl)c2)C(=O)NCC(=O)N2CCC[C@@H]2c2ccccc2Br)n1 [Compound 10]
29

* * *

Target: Cyp D (Homo sapiens)
Sequence (P30405 42-207): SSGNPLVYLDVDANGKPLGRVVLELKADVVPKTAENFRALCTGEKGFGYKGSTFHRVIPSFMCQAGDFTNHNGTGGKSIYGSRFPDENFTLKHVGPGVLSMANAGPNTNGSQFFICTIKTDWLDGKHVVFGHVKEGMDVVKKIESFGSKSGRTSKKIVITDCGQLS
Experiment: SPR kinetic titration, Cyp D
measurement name: Kd (nM)

1) CSc1ccccc1[C@H]1CCCN1C(=O)CNC(=O)N(Cc1ccc2c(c1)[C@H]1C[C@@H](N2)[C@H](O)CO1)Cc1nnn(C)n1
8

* * *

solubility at 24 h values, listed per item
Experiment: Aqueous kinetic solubility, shake-flask
Conditions: simulated intestinal fluid
measurement name: solubility at 24 h

1) Cn1nnc(CN(Cc2ccc(N)c(Cl)c2)C(=O)NCC(=O)N2CCC[C@@H]2c2ccccc2Br)n1
> 200 µM
2) CSc1ccccc1[C@H]1CCCN1C(=O)CNC(=O)N(Cc1ccc(N)c(Cl)c1)Cc1nnn(C)n1
> 200 µM
3) CSc1ccccc1[C@H]1CCCN1C(=O)CNC(=O)N(Cc1cnc(N)nc1)Cc1ncc(C)s1
> 200 µM

* * *

Test system: CYP1A
Test: Cytochrome P450 inhibition CYP1A
Format: in vitro ADME
Conditions: human, probe phenacetin; single point at 10 μM; substrate phenacetin
measurement name: inhibition at 10 µM (%)

1) CSc1ccccc1[C@H]1CCCN1C(=O)CNC(=O)N(Cc1ccc(N)c(Cl)c1)Cc1nnn(C)n1 [Compound 11]
25

* * *

Test: Intrinsic clearance, rat hepatocytes
Assay type: in vitro ADME
Details: hepatocytes, read-out: Rat Hepatocytes t1/2
measurement name: half-life

1. CSc1ccccc1[C@H]1CCCN1C(=O)CNC(=O)N(Cc1ccc(N)c(Cl)c1)Cc1nnn(C)n1 [Compound 11]
1.3 h
2. CSc1ccccc1[C@H]1CCCN1C(=O)CNC(=O)N(Cc1cnc(N)nc1)Cc1ncc(C)s1 [Compound 12]
1.4 h
3. Cn1nnc(CN(Cc2ccc(N)c(Cl)c2)C(=O)NCC(=O)N2CCC[C@@H]2c2ccccc2Br)n1 [Compound 10]
> 2 h

* * *

Assay: Intrinsic clearance, human hepatocytes
Assay type: in vitro ADME
Conditions: cryopreserved hepatocytes
measurement name: half-life

1) CSc1ccccc1[C@H]1CCCN1C(=O)CNC(=O)N(Cc1ccc2c(c1)[C@H]1C[C@@H](N2)[C@H](O)CO1)Cc1nnn(C)n1
> 2 h

This collection of values is drawn from paper PMC11956012.
